Reported Hydrolysis product G2P values for the following compounds.
target: HPA (Homo sapiens, UniProt P04746); assay: Binding mode (distribution of hydrolysis products) by HPLC; assay type: biochemical; conditions: share of product G2P
Sequence (P04746 16-511): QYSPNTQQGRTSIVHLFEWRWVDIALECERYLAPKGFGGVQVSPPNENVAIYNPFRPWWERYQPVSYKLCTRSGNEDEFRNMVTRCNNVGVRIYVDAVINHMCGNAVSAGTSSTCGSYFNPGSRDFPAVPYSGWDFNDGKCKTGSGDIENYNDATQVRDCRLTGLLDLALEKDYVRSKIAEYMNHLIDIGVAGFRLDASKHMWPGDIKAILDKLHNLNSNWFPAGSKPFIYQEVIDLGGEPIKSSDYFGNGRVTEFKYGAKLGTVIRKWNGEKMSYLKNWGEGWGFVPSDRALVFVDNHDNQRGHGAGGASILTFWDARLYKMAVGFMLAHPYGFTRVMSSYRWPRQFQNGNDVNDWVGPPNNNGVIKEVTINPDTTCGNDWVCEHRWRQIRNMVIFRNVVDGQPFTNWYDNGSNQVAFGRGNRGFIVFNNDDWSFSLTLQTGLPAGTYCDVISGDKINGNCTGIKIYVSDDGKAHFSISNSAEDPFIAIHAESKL
Write the answer as a number in %, unit excluded.

O=[N+]([O-])c1ccc(O[C@H]2O[C@H](CO)[C@@H](O[C@H]3O[C@H](CO)[C@@H](O[C@H]4O[C@H](CO)[C@@H](O[C@H]5O[C@H](CO)[C@@H](O[C@H]6O[C@H](CO)[C@@H](O)[C@H](O)[C@H]6O)[C@H](O)[C@H]5O)[C@H](O)[C@H]4O)[C@H](O)[C@H]3O)[C@H](O)[C@H]2O)cc1 [Substrate G5P] : 73

Give its Hydrolysis product G2P value. Item: O=[N+]([O-])c1ccc(O[C@H]2O[C@H](CO)[C@@H](O[C@H]3O[C@H](CO)[C@@H](O[C@H]4O[C@H](CO)[C@@H](O[C@H]5O[C@H](CO)[C@@H](O[C@H]6O[C@H](CO)[C@@H](O[C@H]7O[C@H](COCc8ccccc8)[C@@H](O)[C@H](O)[C@H]7O)[C@H](O)[C@H]6O)[C@H](O)[C@H]5O)[C@H](O)[C@H]4O)[C@H](O)[C@H]3O)[C@H](O)[C@H]2O)cc1 [BG6P] 23

Give its Hydrolysis product G2P value. Item: O=[N+]([O-])c1ccc(O[C@H]2O[C@H](CO)[C@@H](O[C@H]3O[C@H](CO)[C@@H](O[C@H]4O[C@H](CO)[C@@H](O[C@H]5O[C@H](CO)[C@@H](O[C@H]6O[C@H](CO)[C@@H](O[C@H]7O[C@H](CO)[C@@H](O[C@H]8O[C@@H]9COC(c%10ccccc%10)O[C@H]9[C@H](O)[C@H]8O)[C@H](O)[C@H]7O)[C@H](O)[C@H]6O)[C@H](O)[C@H]5O)[C@H](O)[C@H]4O)[C@H](O)[C@H]3O)[C@H](O)[C@H]2O)cc1 (some centres unmarked) [BDG7P] 48

Give its Hydrolysis product G2P value. Item: O=[N+]([O-])c1ccc(O[C@H]2O[C@H](CO)[C@@H](O[C@H]3O[C@H](CO)[C@@H](O[C@H]4O[C@H](CO)[C@@H](O[C@H]5O[C@H](CO)[C@@H](O[C@H]6O[C@H](CO)[C@@H](O[C@H]7O[C@@H]8COC(c9ccccc9)O[C@H]8[C@H](O)[C@H]7O)[C@H](O)[C@H]6O)[C@H](O)[C@H]5O)[C@H](O)[C@H]4O)[C@H](O)[C@H]3O)[C@H](O)[C@H]2O)cc1 (some centres unmarked) [BDG6P] 73

Give its Hydrolysis product G2P value. Item: O=[N+]([O-])c1ccc(O[C@H]2O[C@H](CO)[C@@H](O[C@H]3O[C@H](CO)[C@@H](O[C@H]4O[C@H](CO)[C@@H](O[C@H]5O[C@H](CO)[C@@H](O[C@H]6O[C@H](CO)[C@@H](O[C@H]7O[C@H](CO)[C@@H](O[C@H]8O[C@H](CO)[C@@H](O)[C@H](O)[C@H]8O)[C@H](O)[C@H]7O)[C@H](O)[C@H]6O)[C@H](O)[C@H]5O)[C@H](O)[C@H]4O)[C@H](O)[C@H]3O)[C@H](O)[C@H]2O)cc1 [Substrate G7P] 14
